Tested on: SNB-19 CNS
assay_overview: NCI tumour cell line growth inhibition, 48 h
Task for the reader: assign each of the following compounds its reported GI50.

Asked: Please give the measured GI50 for this compound: O=C(Nc1ccc(Nc2ccncc2)cc1)c1ccc([N+](=O)[O-])cc1
Given back: 4.47 µM

Asked: Please give the measured GI50 for this compound: Cn1c(I)c(C#CCO[Si](C)(C)C(C)(C)C)c(=O)[nH]c1=O
Given back: > 100 µM

Asked: Please give the measured GI50 for this compound: N.N.N.N.O=C([O-])CCl.O=C([O-])CCl.[Co+3].[O-][Cl+3]([O-])([O-])[O-]
Given back: > 100 µM

Asked: Please give the measured GI50 for this compound: N#Cc1c(NC(=O)NCc2ccccc2)sc2c1CCCCC2
Given back: 0.588 µM

Asked: Please give the measured GI50 for this compound: CC1=C(C(=O)Nc2ccc(F)c(Cl)c2)C(c2ccccc2O)NC(=S)N1 (stereo not given)
Given back: > 50 µM

* * *

Tested on: HCT-15 colon
assay_overview: NCI tumour cell line growth inhibition, 48 h
Task for the reader: assign each of the following molecules its reported TGI.

Asked: Please give the measured TGI for this molecule: CC(C)(C)OC(=O)NC1CCCCC1NC(=O)C(=O)NC1CCCCC1NC(=O)OC(C)(C)C (stereo unspecified)
Given back: > 100 µM

Asked: Please give the measured TGI for this molecule: O=S(=O)(O)CCCc1cccc2ccccc12
Given back: > 100 µM

Asked: Please give the measured TGI for this molecule: C=CCc1cccc2cc(C(=O)NCc3ccccc3)c(=N)oc12
Given back: > 100 µM

Asked: Please give the measured TGI for this molecule: C=CCc1c(O)c2c(c3oc(=O)cc(C)c13)CC(C)O2 (stereo unspecified)
Given back: > 100 µM

Asked: Please give the measured TGI for this molecule: CC(=O)Nc1ccc(S(=O)(=O)N2C(=O)CCC2C(=O)Nc2ccc(Br)cc2)cc1 (stereo unspecified)
Given back: 13 µM

Asked: Please give the measured TGI for this molecule: CC(=O)c1ccccc1NP(=O)(c1ccccc1)c1ccccc1
Given back: > 100 µM

Asked: Please give the measured TGI for this molecule: N#CC1C(=S)NC(c2ccccc2)=CC12CCCCC2 (stereo unspecified)
Given back: 53 µM

Asked: Please give the measured TGI for this molecule: Oc1ccc(Nc2ncnc3c2sc2ncccc23)cc1
Given back: > 100 µM

Asked: Please give the measured TGI for this molecule: CO/N=C(\C(=O)OC(=NC1CCCCC1)NC1CCCCC1)c1csc(NC(c2ccccc2)(c2ccccc2)c2ccccc2)n1
Given back: > 10 µM

Asked: Please give the measured TGI for this molecule: O=C(/C=C/c1ccccc1)Oc1cccc(O)c1
Given back: 34.7 µM

Asked: Please give the measured TGI for this molecule: O=c1sc2ccccc2n1CC1CS1 (stereo unspecified)
Given back: > 100 µM

* * *

System: CCRF-CEM leukemia
assay_overview: NCI tumour cell line growth inhibition, 48 h; in the data active means GI50 below about 0.43 µM; inactive means the rest
Result category, one only: T = active, F = inactive

Asked: Dear all, I need the recorded test outcome for CC[As](CC)SC[C@H](C)C(=O)N1CCC[C@H]1C(=O)O , thank you.
Given back: T

Asked: Dear all, I need the recorded test outcome for N#Cc1c(N)nc(N2CCOCC2)c(C#N)c1-c1ccncc1 , thank you.
Given back: F

Asked: Dear all, I need the recorded test outcome for C#CCOc1cccc(-c2ncc3cc(NC(=O)CCl)ccc3n2)c1 , thank you.
Given back: T

Asked: Dear all, I need the recorded test outcome for O=C(O)COc1ccc2c(=O)c3sc4c(=O)c5ccccc5c(=O)c4c3c(=O)c2c1 , thank you.
Given back: F

Asked: Dear all, I need the recorded test outcome for N#Cc1c(NC(=O)NCc2ccccc2)sc2c1CCCCC2 , thank you.
Given back: T

Asked: Dear all, I need the recorded test outcome for O=C(Nc1ccc(Nc2ccncc2)cc1)c1ccc([N+](=O)[O-])cc1 , thank you.
Given back: F

Asked: Dear all, I need the recorded test outcome for CC(=O)OC1COC(Oc2c(C)c3c4c(c2O)[C@@H](C)CC[C@@H]4[C@@H](C)C[C@H]3C=C(C)C)C(O)C1OC(C)=O (stereo not given in full) , thank you.
Given back: F

Asked: Dear all, I need the recorded test outcome for COc1cc(Nc2ncccc2C(=O)NCc2cn(Cc3cccc(Oc4ccccc4)c3)nn2)cc(OC)c1 , thank you.
Given back: F

Asked: Dear all, I need the recorded test outcome for CC/C=C\C[C@H](O)C/C=C1/C(=O)C(Cl)=C[C@@H]1C/C=C\CCCC(=O)OC , thank you.
Given back: T

Asked: Dear all, I need the recorded test outcome for Oc1ccc(Nc2ncnc3c2sc2ncccc23)cc1 , thank you.
Given back: T

* * *

Task for the reader: assign each of the following compounds its reported GI50.
System: NCI/ADR-RES ovarian
assay_overview: NCI tumour cell line growth inhibition, 48 h

Asked: Please give the measured GI50 for this compound: COC(=O)COc1ccccc1/C=C1\N=C(c2ccccc2)N(c2cc(C(F)(F)F)ccc2Cl)C1=O
Given back: 45.8 µM

Asked: Please give the measured GI50 for this compound: NC(=O)/C=C/C(=O)c1c(Cl)cccc1Cl
Given back: 1.77 µM

Asked: Please give the measured GI50 for this compound: C[N+](C)(C)CC1CCCc2ccccc2C1=O (configuration not stated)
Given back: 22.4 µM

Asked: Please give the measured GI50 for this compound: C#CCOc1cccc(-c2ncc3cc(NC(=O)CCl)ccc3n2)c1
Given back: 3.07 µM

Asked: Please give the measured GI50 for this compound: Nc1ccc([N+](=O)[O-])cc1N=C/C=C/c1ccccc1
Given back: 7.84 µM

Asked: Please give the measured GI50 for this compound: S=C(Nc1ccc(Cl)cc1)Nc1ccc(-c2nc3ccccc3s2)cc1
Given back: 17.5 µM

Asked: Please give the measured GI50 for this compound: C/C=C(\C)C(=O)O[C@H]1C=CC(=O)O[C@H]1CCC(=O)[C@H](C)O
Given back: 21.1 µM

Asked: Please give the measured GI50 for this compound: Cn1cc(C2=C(c3ccc(N)cc3)C(=O)NC2=O)c2ccccc21
Given back: 21.8 µM

Asked: Please give the measured GI50 for this compound: O=C(Nc1ccc(Nc2ccncc2)cc1)c1ccc([N+](=O)[O-])cc1
Given back: 14.2 µM

Asked: Please give the measured GI50 for this compound: COc1cccc(CC(C)=C(c2ccc(OCCN(C)C)cc2)c2ccc(OCCN(C)C)cc2)c1
Given back: 3.76 µM

Asked: Please give the measured GI50 for this compound: CSC1=Nc2c(c(C)c(C)n2COC(CO)CO)C2=NC(=O)C(C)N12 (configuration not stated)
Given back: > 100 µM

Asked: Please give the measured GI50 for this compound: Cc1ccc(SC2c3ccc(C)cc3Oc3nc(N)c(C#N)c(N)c32)cc1 (configuration not stated)
Given back: 2.79 µM

Asked: Please give the measured GI50 for this compound: CO/N=C(/C)c1cccc(Nc2cc(-n3nnc4ccccc43)nc3ccccc23)c1
Given back: 61.9 µM

Asked: Please give the measured GI50 for this compound: Cc1cc(Nc2ccc(NC(=O)c3ccc(Nc4ccnc5ccccc45)cc3)cc2)nc(N)n1
Given back: > 100 µM

Asked: Please give the measured GI50 for this compound: Cc1cc(Cl)cc(OCCn2cc(F)cn2)c1-c1nc(N)nc2c1CN(C(=O)NCC(C)(F)F)C2
Given back: 53.1 µM

Asked: Please give the measured GI50 for this compound: CC1(C)N=C(N)N=C(N)N1c1ccc(CCCCc2ccc(Cl)cc2S(=O)(=O)F)c(Cl)c1
Given back: 5.28 µM

Asked: Please give the measured GI50 for this compound: O=C(Nc1ccc(Br)cc1F)c1cc(F)ccc1O
Given back: 0.533 µM

* * *

Tested on: 786-0 renal
assay_overview: NCI tumour cell line growth inhibition, 48 h
measured_metric: TGI

Asked: Please give the measured TGI for this compound: CC(=O)c1ccccc1NP(=O)(c1ccccc1)c1ccccc1
Given back: > 100 µM

Asked: Please give the measured TGI for this compound: CCN(CC)CCC(CNc1ccnc2cc(Cl)ccc12)c1ccc(Cl)cc1 (stereo not drawn)
Given back: 2.68 µM

Asked: Please give the measured TGI for this compound: COC(=O)C1c2cc3c(cc2C(OC2OC(C)C(OC)C(C)(OC)C2OC)CC1(C)O)C(=O)c1c(O)cc2c(c1C3=O)OC1OC2(C)C(O)C([N+](C)(C)[O-])C1O (stereo not drawn)
Given back: > 40.5 µM

* * *

Test system: OVCAR-8 ovarian
assay_overview: NCI tumour cell line growth inhibition, 48 h; in the data active means GI50 below about 0.43 µM; inactive means the rest
Result category, one only: active, inactive

Asked: Dear all, I need the recorded test outcome for O=C(O)COc1ccc2c(=O)c3sc4c(=O)c5ccccc5c(=O)c4c3c(=O)c2c1 , thank you.
Given back: inactive

Asked: Dear all, I need the recorded test outcome for Oc1ccc(Nc2ncnc3c2sc2ncccc23)cc1 , thank you.
Given back: active

Asked: Dear all, I need the recorded test outcome for CCCCC#CC1=C(Br)C(=O)OC1 , thank you.
Given back: inactive

Asked: Dear all, I need the recorded test outcome for CC/C=C\C[C@H](O)C/C=C1/C(=O)C(Cl)=C[C@@H]1C/C=C\CCCC(=O)OC , thank you.
Given back: active

Asked: Dear all, I need the recorded test outcome for CCCCOC(=O)CNC(=O)OC/C=C/C#CC#C/C=C/COC(=O)NCC(=O)OCCCC , thank you.
Given back: inactive

Asked: Dear all, I need the recorded test outcome for Nc1nn2cc(F)cnc2c1C(=O)Nc1cncc(F)c1N1CCC(C(=O)N2CCN(C3COC3)CC2)CC1 , thank you.
Given back: inactive

Asked: Dear all, I need the recorded test outcome for CC(=O)Nc1ccc(S(=O)(=O)N2C(=O)CCC2C(=O)Nc2ccc(Br)cc2)cc1 (configuration not stated) , thank you.
Given back: inactive

Asked: Dear all, I need the recorded test outcome for CCOC(=O)C1=CN(C)C=C(C(=O)OCC)C1c1cc(Br)c(OCC)c(OC)c1 , thank you.
Given back: inactive

Asked: Dear all, I need the recorded test outcome for NC(N)=N/N=C/c1c(-c2ccsc2)nc2sccn12 , thank you.
Given back: inactive

Asked: Dear all, I need the recorded test outcome for CC1(C)N=C(N)N=C(N)N1c1ccc(CCCCc2ccc(Cl)cc2S(=O)(=O)F)c(Cl)c1 , thank you.
Given back: inactive

Asked: Dear all, I need the recorded test outcome for Cc1ccc(SC2c3ccc(C)cc3Oc3nc(N)c(C#N)c(N)c32)cc1 (configuration not stated) , thank you.
Given back: inactive

Asked: Dear all, I need the recorded test outcome for CCN(CC)CCC(CNc1ccnc2cc(Cl)ccc12)c1ccc(Cl)cc1 (configuration not stated) , thank you.
Given back: inactive

Asked: Dear all, I need the recorded test outcome for COC(=O)c1ccc2c(c1)nc(NC(=O)c1ccccc1)n2CCCc1ccccc1 , thank you.
Given back: inactive

Asked: Dear all, I need the recorded test outcome for COc1ccc(Sc2[nH]c(C(C)=O)c3ccccc23)cc1 , thank you.
Given back: inactive

Asked: Dear all, I need the recorded test outcome for CC1=C(C(=O)Nc2ccc(F)c(Cl)c2)C(c2ccccc2O)NC(=S)N1 (configuration not stated) , thank you.
Given back: inactive

Asked: Dear all, I need the recorded test outcome for C[N+](C)(C)CC1CCCc2ccccc2C1=O (configuration not stated) , thank you.
Given back: inactive

Asked: Dear all, I need the recorded test outcome for N#Cc1c(N)nc(N2CCOCC2)c(C#N)c1-c1ccncc1 , thank you.
Given back: inactive
